Hi there, I'd appreciate the recorded pIC50 for every entry that follows.
molecular target: Intercellular adhesion molecule (ICAM-1), Integrin alpha-L/beta-2 (Homo sapiens, UniProt P05107+P05362+P20701); assay: Inhibitory activity against association of LFA-1 with intercellular adhesion molecule 1; type: protein-complex assay
Sequence (P20701 whole entry): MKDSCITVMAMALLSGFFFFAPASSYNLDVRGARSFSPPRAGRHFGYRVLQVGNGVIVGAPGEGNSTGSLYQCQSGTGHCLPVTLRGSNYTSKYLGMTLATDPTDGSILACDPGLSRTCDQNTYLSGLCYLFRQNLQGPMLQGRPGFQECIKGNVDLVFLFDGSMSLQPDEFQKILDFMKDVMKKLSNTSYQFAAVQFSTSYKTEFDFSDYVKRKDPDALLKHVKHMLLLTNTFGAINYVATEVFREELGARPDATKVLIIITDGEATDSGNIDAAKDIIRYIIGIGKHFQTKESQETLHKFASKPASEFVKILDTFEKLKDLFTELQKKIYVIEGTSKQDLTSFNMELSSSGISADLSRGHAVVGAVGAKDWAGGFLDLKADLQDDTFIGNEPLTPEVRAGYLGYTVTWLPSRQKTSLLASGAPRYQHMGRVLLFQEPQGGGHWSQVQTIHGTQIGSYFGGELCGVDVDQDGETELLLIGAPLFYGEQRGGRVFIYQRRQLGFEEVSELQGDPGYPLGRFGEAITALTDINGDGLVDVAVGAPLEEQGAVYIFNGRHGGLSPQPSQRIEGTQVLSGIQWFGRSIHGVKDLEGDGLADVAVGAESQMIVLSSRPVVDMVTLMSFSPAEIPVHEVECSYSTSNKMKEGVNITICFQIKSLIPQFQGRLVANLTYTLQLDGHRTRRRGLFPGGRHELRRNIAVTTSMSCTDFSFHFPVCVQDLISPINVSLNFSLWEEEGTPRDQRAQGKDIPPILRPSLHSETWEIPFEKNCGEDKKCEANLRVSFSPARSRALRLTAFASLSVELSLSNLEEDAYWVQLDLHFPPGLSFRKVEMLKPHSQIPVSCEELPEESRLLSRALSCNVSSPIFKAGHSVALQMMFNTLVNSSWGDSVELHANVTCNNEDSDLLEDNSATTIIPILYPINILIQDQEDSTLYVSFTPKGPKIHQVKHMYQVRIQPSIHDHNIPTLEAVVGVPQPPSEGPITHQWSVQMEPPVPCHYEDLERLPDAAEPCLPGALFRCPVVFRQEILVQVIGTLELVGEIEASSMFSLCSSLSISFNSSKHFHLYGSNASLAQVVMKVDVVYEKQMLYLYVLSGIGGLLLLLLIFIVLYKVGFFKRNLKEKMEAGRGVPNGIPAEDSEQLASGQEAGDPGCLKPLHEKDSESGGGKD
Sequence (P05362 whole entry): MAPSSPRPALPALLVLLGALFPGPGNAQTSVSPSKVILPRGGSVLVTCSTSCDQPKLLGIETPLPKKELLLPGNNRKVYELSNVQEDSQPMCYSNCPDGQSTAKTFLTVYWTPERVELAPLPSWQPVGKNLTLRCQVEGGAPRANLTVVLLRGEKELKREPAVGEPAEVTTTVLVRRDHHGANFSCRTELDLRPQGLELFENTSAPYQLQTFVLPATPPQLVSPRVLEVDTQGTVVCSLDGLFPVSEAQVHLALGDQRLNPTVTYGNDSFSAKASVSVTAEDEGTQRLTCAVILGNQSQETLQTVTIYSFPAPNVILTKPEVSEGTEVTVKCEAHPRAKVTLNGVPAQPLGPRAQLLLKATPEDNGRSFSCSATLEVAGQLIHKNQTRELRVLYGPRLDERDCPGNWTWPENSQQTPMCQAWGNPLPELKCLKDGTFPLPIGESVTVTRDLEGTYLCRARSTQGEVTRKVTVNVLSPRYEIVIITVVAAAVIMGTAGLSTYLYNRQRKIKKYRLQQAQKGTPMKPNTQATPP
Sequence (P05107 whole entry): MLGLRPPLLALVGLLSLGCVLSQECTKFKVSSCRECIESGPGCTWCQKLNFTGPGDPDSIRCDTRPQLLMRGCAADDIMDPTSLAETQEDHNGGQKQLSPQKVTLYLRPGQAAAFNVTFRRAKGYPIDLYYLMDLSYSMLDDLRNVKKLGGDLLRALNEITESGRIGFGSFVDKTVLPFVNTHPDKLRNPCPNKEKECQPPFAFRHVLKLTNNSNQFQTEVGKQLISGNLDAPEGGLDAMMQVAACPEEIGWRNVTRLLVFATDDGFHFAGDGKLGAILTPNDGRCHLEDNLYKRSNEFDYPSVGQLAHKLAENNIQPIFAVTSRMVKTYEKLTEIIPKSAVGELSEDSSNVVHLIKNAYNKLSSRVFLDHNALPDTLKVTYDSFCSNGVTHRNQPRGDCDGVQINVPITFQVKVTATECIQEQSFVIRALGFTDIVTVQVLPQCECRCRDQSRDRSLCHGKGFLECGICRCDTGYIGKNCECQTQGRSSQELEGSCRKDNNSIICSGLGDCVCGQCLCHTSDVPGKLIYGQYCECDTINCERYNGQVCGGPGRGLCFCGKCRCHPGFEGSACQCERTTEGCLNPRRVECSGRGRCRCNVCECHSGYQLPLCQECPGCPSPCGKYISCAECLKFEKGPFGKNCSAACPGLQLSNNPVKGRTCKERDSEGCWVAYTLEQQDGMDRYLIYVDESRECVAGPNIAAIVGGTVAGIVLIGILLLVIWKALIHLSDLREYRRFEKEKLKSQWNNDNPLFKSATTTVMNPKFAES
Answers are plain numbers, as −log10 of the molar value.

O=C(N[C@@H](Cc1c[nH]c2ccccc12)C(=O)O)c1ccc(F)cc1	3.87
O=C(N[C@@H](Cc1c[nH]c2ccccc12)C(=O)O)c1ccncc1	4.04
O=C(N[C@@H](Cc1c[nH]cn1)C(=O)O)c1c(F)cccc1F	6.70

Could you tell me pIC50 for each of these molecules? They are listed below.
1. O=C(N[C@@H](Cc1c[nH]c2ccccc12)C(=O)O)c1cc(Br)ccc1Br
2. O=C(N[C@@H](Cc1c[nH]c2ccccc12)C(=O)O)c1c(F)cccc1Cl
3. Cc1ccc(C(=O)N[C@@H](Cc2c[nH]c3ccccc23)C(=O)O)cc1
4. O=C(N[C@@H](Cc1c[nH]cn1)C(=O)O)c1c(F)cccc1Cl
5. O=C(N[C@@H](Cc1c[nH]c2ccccc12)C(=O)O)c1ccc(Br)cc1
6. NC(=O)C[C@H](NC(=O)c1c(F)cccc1F)C(=O)O
7. O=C(N[C@@H](Cc1c[nH]c2ccccc12)C(=O)O)c1cc(Cl)cc(Cl)c1
8. O=C(N[C@@H](Cc1c[nH]c2ccccc12)C(=O)O)c1ccc(Cl)c(Cl)c1

stdout:
[4.61, 6.60, 3.89, 6.89, 4.21, 6.64, 3.70, 3.77]

Could you tell me pIC50 for each of these molecules? They are listed below.
1. O=C(N[C@@H](Cc1c[nH]c2ccccc12)C(=O)O)c1cccc(Cl)c1Cl
2. Nc1ccc(C(=O)N[C@@H](Cc2c[nH]c3ccccc23)C(=O)O)c(Cl)c1
3. O=C(N[C@@H](Cc1c[nH]c2ccccc12)C(=O)O)c1c(F)cccc1F
4. O=C(N[C@@H](Cc1c[nH]c2ccccc12)C(=O)O)c1cccnc1

stdout:
[5.20, 5.70, 6.34, 3.95]

====

biological target: Intercellular adhesion molecule (ICAM-1), Integrin alpha-L/beta-2 (Homo sapiens, UniProt P05107+P05362+P20701); assay: Inhibitory activity against association of LFA-1 with intercellular adhesion molecule 1
quantity-measured: IC50 (µM)
Answers are plain numbers, in µM.

Example results:
O=C(N[C@@H](Cc1c[nH]c2ccccc12)C(=O)O)c1c(F)cccc1Br	0.43
O=C(N[C@@H](Cc1c[nH]c2ccccc12)C(=O)O)c1ccccc1F	7.4

Could you tell me IC50 for each of these compounds? They are listed below.
1. NC(=O)C[C@H](NC(=O)c1c(F)cccc1Cl)C(=O)O
2. Cc1ccccc1C(=O)N[C@@H](Cc1c[nH]c2ccccc12)C(=O)O
3. CC1CCCCC1C(=O)N[C@@H](Cc1c[nH]c2ccccc12)C(=O)O (some centres not stated)

stdout:
1. 0.11
2. 4
3. 28

Could you tell me IC50 for each of these compounds? They are listed below.
1. Cc1cccc(Cl)c1C(=O)N[C@@H](Cc1c[nH]c2ccccc12)C(=O)O
2. COc1ccc(Br)c(C(=O)N[C@@H](Cc2c[nH]c3ccccc23)C(=O)O)c1
3. Cc1cccc(C)c1C(=O)N[C@@H](Cc1cnc[nH]1)C(=O)O
4. Cc1cccc(C(=O)N[C@@H](Cc2c[nH]c3ccccc23)C(=O)O)c1
5. O=C(N[C@@H](Cc1c[nH]c2ccccc12)C(=O)O)c1c(Cl)cccc1Cl

stdout:
0.64
9
1.77
295
0.6

====

biological target: Intercellular adhesion molecule (ICAM-1), Integrin alpha-L/beta-2 (Homo sapiens, UniProt P05107+P05362+P20701); assay: Inhibitory activity against association of LFA-1 with intercellular adhesion molecule 1
quantity-measured: pIC50
Give bare numbers, as −log10 of the molar value.

Example results:
O=C(N[C@@H](Cc1c[nH]c2ccccc12)C(=O)O)c1ccc(Cl)cc1 [BENZOTRIPT]	3.77
O=C(N[C@@H](Cc1c[nH]c2ccccc12)C(=O)O)c1ccccc1Cl	5.82
O=C(O)[C@H](Cc1c[nH]c2ccccc12)NC(=O)N1CCCCC1	3.42
O=C(N[C@@H](Cc1c[nH]c2ccccc12)C(=O)O)c1cnccc1Cl	4.49
O=C(N[C@@H](Cc1c[nH]c2ccccc12)C(=O)O)c1cccc(F)c1	3.83

We now examine a further molecule.
stdin: Could you share which pIC50 value was measured for `O=C(N[C@@H](Cc1c[nH]c2ccccc12)C(=O)O)c1ccccc1I` ?
stdout: 5.05

====

molecular target: Intercellular adhesion molecule (ICAM-1), Integrin alpha-L/beta-2 (Homo sapiens, UniProt P05107+P05362+P20701); test: Inhibitory activity against association of LFA-1 with intercellular adhesion molecule 1
quantity-measured: pIC50
One number for each entry, as −log10 of the molar value.

O=C(N[C@@H](Cc1cnc[nH]1)C(=O)O)c1c(Cl)cccc1Cl	6.80

Could you tell me pIC50 for each of these molecules? They are listed below.
1. O=C(N[C@@H](Cc1c[nH]c2ccccc12)C(=O)O)C1CCCCC1
2. COc1cccc(C(=O)N[C@@H](Cc2c[nH]c3ccccc23)C(=O)O)c1
3. O=C(N[C@@H](Cc1c[nH]c2ccccc12)C(=O)O)c1cc(Cl)ccc1Cl

stdout:
[4.21, 3.36, 5.18]

====

Hi there, I'd appreciate the recorded IC50 for every entry that follows.
target: Intercellular adhesion molecule (ICAM-1), Integrin alpha-L/beta-2 (Homo sapiens, UniProt P05107+P05362+P20701); assay: Inhibitory activity against association of LFA-1 with intercellular adhesion molecule 1
Numbers only, in µM.

Example results:
O=C(N[C@@H](Cc1c[nH]c2ccccc12)C(=O)O)c1cc(F)ccc1F	11.5
O=C(N[C@@H](Cc1c[nH]c2ccccc12)C(=O)O)c1cccc(Cl)c1	295
O=C(N[C@@H](Cc1c[nH]c2ccccc12)C(=O)O)c1cc(Br)ccc1Cl	17.9

We now examine a further compound.
stdin: Could you share which IC50 value was measured for `NC(=O)C[C@H](NC(=O)c1c(Cl)cccc1Cl)C(=O)O` ?
stdout: 0.17

====

Hi there, I'd appreciate the recorded pIC50 for every entry that follows.
molecular target: Intercellular adhesion molecule (ICAM-1), Integrin alpha-L/beta-2 (Homo sapiens, UniProt P05107+P05362+P20701); assay: Inhibitory activity against association of LFA-1 with intercellular adhesion molecule 1
pIC50: −log10 of the molar value. Non-standard residues stand in square brackets, D forms with d. Residues, ends and D or L forms follow the SMILES beside them. ξ: configuration not given here. ξPip = O=C(O)C1CCCCN1

Example results:
O=C(N[C@@H](Cc1c[nH]c2ccccc12)C(=O)O)C1CCNCC1	< 3.00
O=C(N[C@@H](Cc1c[nH]c2ccccc12)C(=O)O)c1cncc(Br)c1	< 3.70
O=C(N[C@@H](Cc1c[nH]c2ccccc12)C(=O)O)C1CCCCN1 (stereo partly specified) (H-[ξPip]-Trp-OH)	< 3.00

Could you tell me pIC50 for each of these compounds? They are listed below.
1. O=C(N[C@@H](Cc1c[nH]c2ccccc12)C(=O)O)C1CCCNC1 (stereo partly specified)
2. O=C(N[C@@H](Cc1c[nH]c2ccccc12)C(=O)O)c1ccc(O)cc1
3. O=C(N[C@@H](Cc1c[nH]c2ccccc12)C(=O)O)c1ccccc1-c1ccccc1

stdout:
1. < 3.00
2. < 4.00
3. < 4.00

====

target: Intercellular adhesion molecule (ICAM-1), Integrin alpha-L/beta-2 (Homo sapiens, UniProt P05107+P05362+P20701); assay: Inhibitory activity against association of LFA-1 with intercellular adhesion molecule 1
quantity-measured: IC50

Example results:
O=C(N[C@@H](Cc1c[nH]c2ccccc12)C(=O)O)c1ccccc1O	> 500 µM
O=C(N[C@@H](Cc1c[nH]c2ccccc12)C(=O)O)c1cc(Br)ccc1O	> 500 µM
O=C(N[C@@H](Cc1c[nH]c2ccccc12)C(=O)O)c1ccc(-c2ccccc2)cc1	> 100 µM

stdin: Could you share which IC50 value was measured for `O=C(N[C@@H](Cc1c[nH]c2ccccc12)C(=O)O)c1ccccn1` ?
stdout: > 100 µM
